Ref: ChEMBL document CHEMBL5223163

molecular target: NAD-dependent malic enzyme, mitochondrial (Homo sapiens); experiment: Inhibition of His-tagged human recombinant full length ME2 using L-malate and beta-NAD+ as substrate preincubated with enzyme for 5 mins followed by beta-NAD+ challenge and incubated under shaking for 5 mins followed by incubation for 2 hrs without shaking by resorufin dye based fluorescence analysis; conditions: read-out: IC50
Below, each of the molecules is paired with its reported IC50 value.
State the answer as a number, implicitly in nM.

Please review the entries below; each comes with its answer.
{"molecule": "COCCOc1ccc(CCC(=O)N2CCN(c3ccc(O)cn3)CC2)cc1", "measurement-label": "IC50", "reported-measurement": 2600}
{"molecule": "O=C1CC(N2CCN(c3ccc(O)cc3)CC2)C(=O)N1c1ccccc1 (stereo unspecified)", "measurement-label": "IC50", "reported-measurement": 200}

## Task Please give measured IC50 of the following entry: O=C(CCc1cc2ccccc2s1)N1CCN(c2ccc(O)cn2)CC1
## Result 1630

## Task Please give measured IC50 of the following entry: O=C(Nc1ccccc1)N1CCN(c2ccc(O)cc2)CC1
## Result 220

## Task Please give measured IC50 of the following entry: COc1ccc(CCC(=O)N2CCN(c3ccc(O)cn3)CC2)cc1
## Result 2500

## Task Please give measured IC50 of the following entry: O=C(CCc1ccccc1)N1CCN(c2ccc(O)cc2)CC1
## Result 270

## Task Please give measured IC50 of the following entry: O=C(Cc1ccc(Cl)cc1)N1CCN(c2ccc(O)cc2)CC1
## Result 150

====

Below, each of the molecules is paired with its reported IC50 value.
molecular target: NAD-dependent malic enzyme, mitochondrial (Homo sapiens, UniProt P23368); test: Inhibition of His-tagged human recombinant full length ME2 using L-malate and beta-NAD+ as substrate preincubated with enzyme for 5 mins followed by beta-NAD+ challenge and incubated under shaking for 5 mins followed by incubation for 2 hrs without shaking by resorufin dye based fluorescence analysis; conditions: read-out: IC50
Sequence (P23368 whole entry): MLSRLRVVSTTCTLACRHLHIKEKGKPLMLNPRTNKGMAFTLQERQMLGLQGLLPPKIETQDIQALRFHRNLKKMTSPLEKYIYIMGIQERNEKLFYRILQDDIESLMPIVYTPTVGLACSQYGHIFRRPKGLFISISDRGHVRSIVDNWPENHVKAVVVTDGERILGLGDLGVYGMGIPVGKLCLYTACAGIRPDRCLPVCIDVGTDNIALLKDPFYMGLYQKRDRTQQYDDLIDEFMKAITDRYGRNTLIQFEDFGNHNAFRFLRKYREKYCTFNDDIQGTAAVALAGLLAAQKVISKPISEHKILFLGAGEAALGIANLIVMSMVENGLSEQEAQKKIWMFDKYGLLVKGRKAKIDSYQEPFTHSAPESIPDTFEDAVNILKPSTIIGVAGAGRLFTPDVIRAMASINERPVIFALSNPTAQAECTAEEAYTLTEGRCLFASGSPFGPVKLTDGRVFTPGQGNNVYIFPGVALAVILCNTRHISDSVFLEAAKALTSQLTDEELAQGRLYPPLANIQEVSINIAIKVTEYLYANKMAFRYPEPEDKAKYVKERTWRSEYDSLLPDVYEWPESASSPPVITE
State the answer as a number, implicitly in nM.

{"molecule": "O=C(O)c1cc2ccccc2c(Cc2cc3ccccc3c(C(=O)O)c2O)c1O", "measurement-label": "IC50", "unit-of-measurement": "nM", "reported-measurement": 2800}
{"molecule": "CC(C)(CC(=O)N1CCN(c2ccc(O)cn2)CC1)c1ccc(Cl)cc1", "measurement-label": "IC50", "unit-of-measurement": "nM", "reported-measurement": 2800}
{"molecule": "O=C(Cc1ccccc1)N1CCN(c2ccc(O)cn2)CC1", "measurement-label": "IC50", "unit-of-measurement": "nM", "reported-measurement": 980}

Please examine the following record next.
## Task Please give measured IC50 of the following entry: O=C(Nc1nnn[nH]1)C1c2ccccc2OC2C=CC=CC21 (centres undefined)
## Result 200
